target: Adenylate cyclase type 5 (Homo sapiens, UniProt O95622); experiment: Inhibition of recombinant human adenylate cyclase 5 expressed in HEK293 cells
Sequence (O95622 whole entry): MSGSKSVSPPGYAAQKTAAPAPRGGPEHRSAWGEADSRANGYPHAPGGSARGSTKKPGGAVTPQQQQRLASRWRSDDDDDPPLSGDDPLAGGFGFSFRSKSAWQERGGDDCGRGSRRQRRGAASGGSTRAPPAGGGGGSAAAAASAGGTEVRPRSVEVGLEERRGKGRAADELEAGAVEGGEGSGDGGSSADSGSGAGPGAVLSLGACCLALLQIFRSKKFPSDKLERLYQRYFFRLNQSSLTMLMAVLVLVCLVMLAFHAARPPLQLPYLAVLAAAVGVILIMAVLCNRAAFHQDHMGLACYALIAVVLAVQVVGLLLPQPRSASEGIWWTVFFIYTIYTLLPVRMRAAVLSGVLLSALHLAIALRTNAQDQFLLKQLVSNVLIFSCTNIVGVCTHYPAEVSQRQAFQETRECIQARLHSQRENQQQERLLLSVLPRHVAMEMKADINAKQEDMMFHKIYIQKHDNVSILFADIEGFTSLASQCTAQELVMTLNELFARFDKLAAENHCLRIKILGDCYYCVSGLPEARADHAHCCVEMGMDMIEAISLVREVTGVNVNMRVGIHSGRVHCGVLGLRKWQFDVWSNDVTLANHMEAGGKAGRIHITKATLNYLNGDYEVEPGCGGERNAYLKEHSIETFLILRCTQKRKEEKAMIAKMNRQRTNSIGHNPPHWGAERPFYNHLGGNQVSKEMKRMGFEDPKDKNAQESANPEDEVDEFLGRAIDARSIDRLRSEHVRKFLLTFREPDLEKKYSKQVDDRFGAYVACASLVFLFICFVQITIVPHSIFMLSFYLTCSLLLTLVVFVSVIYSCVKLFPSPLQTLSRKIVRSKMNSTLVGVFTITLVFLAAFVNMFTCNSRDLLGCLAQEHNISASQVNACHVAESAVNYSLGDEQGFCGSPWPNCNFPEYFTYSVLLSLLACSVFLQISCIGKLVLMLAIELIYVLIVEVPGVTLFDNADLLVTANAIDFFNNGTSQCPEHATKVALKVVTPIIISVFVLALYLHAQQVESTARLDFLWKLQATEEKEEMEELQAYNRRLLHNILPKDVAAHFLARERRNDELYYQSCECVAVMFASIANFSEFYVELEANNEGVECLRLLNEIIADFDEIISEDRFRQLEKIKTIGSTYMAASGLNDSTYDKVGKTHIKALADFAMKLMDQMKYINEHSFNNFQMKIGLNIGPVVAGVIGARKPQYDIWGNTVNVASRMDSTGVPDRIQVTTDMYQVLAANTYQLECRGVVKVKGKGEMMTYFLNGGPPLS
readoutName: IC50

Known IC50 results, listed for orientation:
Nc1ncnc2c1ncn2CCCNCC(=O)NO > 200 µM
Nc1ncnc2c1ncn2CCCCC(=O)NO 7.6 µM

Bench note: what IC50 did `Nc1ncnc2c1ncn2CCCNCC(=O)O` show?
> 200 µM

Next compound: `CC(=O)N(CCn1cnc2c(N)ncnc21)CC(=O)NO`
> 200 µM

Next compound: `CC(C)(C)OC(=O)N(CCCn1cnc2c(N)ncnc21)CC(=O)NO`
> 200 µM

Next compound: `Nc1ncnc2c1ncn2CCCOCC(=O)O`
140 µM

Next compound: `Nc1ncnc2c1ncn2CCCCCCC(=O)O`
> 200 µM

Next compound: `Nc1ncnc2c1ncn2CCCCCC(=O)NO`
35.4 µM

Next compound: `Nc1ncnc2c1ncn2CCCCC(=O)O`
> 200 µM

Next compound: `Nc1ncnc2c1ncn2CCNCC(=O)NO`
> 200 µM

Next compound: `Nc1ncnc2c1ncn2CCCOCC(=O)NO`
94 µM

Next compound: `CCOC(=O)CCCCCCn1cnc2c(N)ncnc21`
> 200 µM

Next compound: `COC(=O)CN(C)CCn1cnc2c(N)ncnc21`
> 200 µM

Next compound: `CN(CCn1cnc2c(N)ncnc21)CC(=O)NO`
15.3 µM
